I'd be grateful if you could share measured Activity for these entries.
Test system: Hepatocyte
Run description: Hepatoprotective activity in Wistar rat CCL4-damaged hepatocyte assessed as blockade of glutamic pyruvic transaminase release at 100 uM relative to control
Type: functional, cell-based
Give just the number in %; leave the unit off.

Query block: What Activity value was documented for this molecule, C[C@@H]1[C@H]2c3cc4c(cc3O[C@@]35OCOC3=CC(=O)[C@H](C[C@H]1C)[C@H]25)OCO4 ?
Result block: 78.2

Query block: Lookup COc1cc(C2Oc3cc([C@H]4Oc5cc(O)cc(O)c5C(=O)[C@@H]4O)ccc3OC2CO)ccc1O (some centres undefined)
Result block: 76.6

Query block: Lookup C[C@@H]1[C@H]2c3cc4c(cc3O[C@@]35OCOC3=CC(=O)[C@H](C[C@H]1C)[C@@H]25)OCO4
Result block: 70.1

Query block: Lookup C[C@@H]1[C@H]2c3cc4c(cc3O[C@@]35OCOC3=CC(=O)[C@@H](C[C@H]1C)[C@@H]25)OCO4
Result block: 75.9
